Measured values drawn from patent US20250206761A1 for this set.

# system name: KRAS G12V binding to BRAF (Homo sapiens (Human), UniProt P01116+P62937, G12V)
# Sequence (P01116-2 other isoform, or with tags, fused parts or gaps G12V): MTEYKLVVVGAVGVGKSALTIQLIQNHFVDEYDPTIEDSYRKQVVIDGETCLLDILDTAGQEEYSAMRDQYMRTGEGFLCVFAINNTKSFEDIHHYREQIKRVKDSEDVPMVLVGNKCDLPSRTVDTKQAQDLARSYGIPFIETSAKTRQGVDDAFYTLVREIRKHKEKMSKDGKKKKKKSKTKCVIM
# Sequence (P62937 whole entry): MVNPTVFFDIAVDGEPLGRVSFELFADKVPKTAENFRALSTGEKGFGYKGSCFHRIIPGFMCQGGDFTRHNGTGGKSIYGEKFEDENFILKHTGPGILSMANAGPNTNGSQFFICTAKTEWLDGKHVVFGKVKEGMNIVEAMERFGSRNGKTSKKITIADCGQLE
# measurement description: KRAS-BRAF with CYPA (500 nM) interaction assay (TR-FRET), G12V
# Format: biochemical
readout name: pIC50
Scale for pIC50: -log10 of concentration given in mol/L; no unit attached.

* CO[C@@H](C)c1ncc(N2CCN(C)CC2)cc1-c1c2c3cc(c(F)cc3n1CC(F)(F)F)-c1csc(n1)C[C@H](NC(=O)[C@H](C(C)C)N1CCCC3(CN(C(=O)[C@H](F)Cl)C3)C1=O)C(=O)N1CCC[C@H](N1)C(=O)OCC(C)(C)C2 (atropisomer, axis not shown; (M)) [Example 11] | 5.99

Query: Give a short answer stating reported pIC50 for CO[C@@H](C)c1ncc(N2CCN(CC(F)(F)F)CC2)cc1-c1c2c3cc(c(F)cc3n1CC(F)(F)F)-c1csc(n1)C[C@H](NC(=O)[C@H](C(C)C)N1CCCC3(CCN(C(=O)[C@H](F)Cl)CC3)C1=O)C(=O)N1CCC[C@H](N1)C(=O)OCC(C)(C)C2 (atropisomer, axis not shown; (M)) [Example 42] .
Reply: 5.10

Query: Give a short answer stating reported pIC50 for CCn1c(-c2cc(N3CCN(C)CC3)cnc2[C@H](C)OC)c2c3cc(c(F)cc31)-c1csc(n1)C[C@H](NC(=O)[C@H](C(C)C)N1CCC[C@]3(CCN(C(=O)[C@@H](F)Cl)C3)C1=O)C(=O)N1CCC[C@H](N1)C(=O)OCC(C)(C)C2 [Example 23] .
Reply: 5.27

Query: Give a short answer stating reported pIC50 for CO[C@@H](C)c1ncc(N2CCN(C)CC2)cc1-c1c2c3cc(c(F)cc3n1CC(F)(F)F)-c1csc(n1)C[C@H](NC(=O)[C@H](C(C)C)N1CCC[C@]3(CCN(C(=O)[C@H](F)Cl)C3)C1=O)C(=O)N1CCC[C@H](N1)C(=O)OCC(C)(C)C2 (single isomer, unassigned) [Example 18] .
Reply: 5.48

Query: Give a short answer stating reported pIC50 for CO[C@@H](C)c1ncc(N2CCN(CC(F)(F)F)CC2)cc1-c1c2c3cc(c(F)cc3n1CC(F)(F)F)-c1csc(n1)C[C@H](NC(=O)[C@H](C(C)C)N1CC[C@@]3(CCN(C(=O)[C@H](F)Cl)C3)C1=O)C(=O)N1CCC[C@H](N1)C(=O)OCC(C)(C)C2 (atropisomer, axis not shown) [Example 43] .
Reply: 5.77
